system: CCRF S-180; assay: Antitumor activity against mouse S180 cells allografted in ICR mouse assessed as tumor growth inhibition at 200 mg/kg, ig qd administered for 6 days relative to vehicle-treated control; assay type: functional; details: CCRF S-180, po, 144 h, route intragastric, read-out: TGI

Chemical structure: CCOC(=O)Cc1cccc2c(=O)c3ccc(C)c(C)c3oc12
Unit descriptor: %
inhibition in vivo at 200 mg/kg: 4.04
--
Chemical structure: Cc1ccc2c(=O)c3cccc(CC(=O)Nc4ccccc4)c3oc2c1C
Unit descriptor: %
inhibition in vivo at 200 mg/kg: 18.4
--
Chemical structure: Cc1ccc2c(=O)c3cccc(CC(=O)Nc4cccc(Cl)c4)c3oc2c1C
Unit descriptor: %
inhibition in vivo at 200 mg/kg: 22.4
--
Chemical structure: CCCNC(=O)Cc1cccc2c(=O)c3ccc(C)c(C)c3oc12
Unit descriptor: %
inhibition in vivo at 200 mg/kg: 25.6
--
Chemical structure: Cc1ccc2c(=O)c3cccc(CC(=O)Nc4ccc(Cl)cc4)c3oc2c1C
Unit descriptor: %
inhibition in vivo at 200 mg/kg: 27.8
--
Chemical structure: Cc1ccc2c(=O)c3cccc(CC(=O)Nc4ccc(Cl)c(Cl)c4)c3oc2c1C
Unit descriptor: %
inhibition in vivo at 200 mg/kg: 29.6

----------
tested on: Mus musculus; experiment: Toxicity in ICR mouse allografted with mouse S180 cells assessed as body weight loss at 200 mg/kg, ig qd administered for 6 days relative to vehicle-treated control; format: organism-based, CCRF S-180; parameters: dose 200 mg/kg, route intragastric; details: in vivo, po, 144 h
Threshold check on Activity: at or above 10% gives satisfied, strictly below gives not satisfied.

Chemical structure: Cc1ccc2c(=O)c3cccc(CC(=O)Nc4ccc(Cl)c(Cl)c4)c3oc2c1C
Qualitative label: satisfied
--
Chemical structure: Cc1ccc2c(=O)c3cccc(CC(=O)Nc4cccc(Cl)c4)c3oc2c1C
Qualitative label: satisfied
--
Chemical structure: Cc1ccc2c(=O)c3cccc(CC(=O)Nc4ccc(Cl)cc4)c3oc2c1C
Qualitative label: satisfied
--
Chemical structure: CCCNC(=O)Cc1cccc2c(=O)c3ccc(C)c(C)c3oc12
Qualitative label: satisfied
--
Chemical structure: CCOC(=O)Cc1cccc2c(=O)c3ccc(C)c(C)c3oc12
Qualitative label: not satisfied

----------
system: MCF7; test: Cytotoxicity against human MCF7 cells after 48 hrs by MTT assay; format: functional, cell-based; settings: MCF7, 48 h

Chemical structure: CCOC(=O)CCNC(=O)Cc1cccc2c(=O)c3ccc(C)c(C)c3oc12
IC50: 40.6 µM

Chemical structure: COc1cccc(/C=N/NC(=O)Cc2cccc3c(=O)c4ccc(C)c(C)c4oc23)c1
IC50: > 100 µM

Chemical structure: Cc1ccc2c(=O)c3cccc(CC(=O)N/N=C/c4cc(Cl)ccc4O)c3oc2c1C
IC50: > 100 µM

Chemical structure: CCCNC(=O)Cc1cccc2c(=O)c3ccc(C)c(C)c3oc12
IC50: > 100 µM

Chemical structure: COc1ccc(/C=C\c2cc(OC)c(OC)c(OC)c2)cc1O
IC50: 25.5 µM

Chemical structure: Cc1ccc2c(=O)c3cccc(CC(=O)N/N=C/c4ccc(O)cc4)c3oc2c1C
IC50: > 100 µM

Chemical structure: Cc1ccc2c(=O)c3cccc(CC(=O)Nc4ccc([N+](=O)[O-])c(C(F)(F)F)c4)c3oc2c1C
IC50: > 100 µM

Chemical structure: Cc1ccc2c(=O)c3cccc(CC(=O)Nc4cccc(Cl)c4)c3oc2c1C
IC50: > 100 µM

Chemical structure: Cc1ccc2c(=O)c3cccc(CC(=O)Nc4ccccc4)c3oc2c1C
IC50: > 100 µM

Chemical structure: Cc1ccc2c(=O)c3cccc(CC(=O)Nc4ccc(Cl)cc4)c3oc2c1C
IC50: > 100 µM

Chemical structure: COc1ccc(/C=N/NC(=O)Cc2cccc3c(=O)c4ccc(C)c(C)c4oc23)cc1
IC50: > 100 µM

Chemical structure: C#CCOC(=O)Cc1cccc2c(=O)c3ccc(C)c(C)c3oc12
IC50: > 100 µM

Chemical structure: CCCCNC(=O)Cc1cccc2c(=O)c3ccc(C)c(C)c3oc12
IC50: 43.8 µM
